# protocol-summary: binders from COS7 lysate, DM2A8 probe, primary screen, torsin A project, cell lysate, small-molecule microarray, fluorescence 635/667 (AID 1065)
# measurement-setup: higher = more signal, COS7 lysate expressing mutant human TOR1A
Parameter threshold = 0.4. Response is 1 when composite z-score meets or exceeds it, else -1.

// known answers, use as guide
molecule | label-value
CCCC[C@H]1C[C@@H]1[C@@H]1N(P(=O)(c2ccccc2)c2ccccc2)C[C@@](O)(c2ccccc2)CC12CC2 | -1
O=C1C2C=CC(C(O)C=Cc3ccc([N+](=O)[O-])cc3)N(n3cnnc3)C2C(=O)N1Cc1ccccc1 (configuration not stated) | 1
COC(=O)[C@@]1(Cc2ccccc2)[C@H]2c3cc(C(=O)N(C)C)n(Cc4ccc(OC)c(OC)c4)c3C[C@H]2CN1C(=O)c1ccccc1 | 1

Request: Can CC(C)[Si](C#C[Si](C(C)C)(C(C)C)C(C)C)(O[C@H](C)c1cn(Cc2ccccc2)nn1)C(C)C be said to have composite z-score at or above 0.4?
Response: -1

Request: Can CN1C(=O)C2C=CC(C(O)C=Cc3ccc([N+](=O)[O-])cc3)N(Nc3ccccc3)C2C1=O (configuration not stated) be said to have composite z-score at or above 0.4?
Response: 1

Request: Can O=C1NC(=O)C2C1C=CC(C(O)c1ccc(-c3ccccc3)s1)N2Nc1ccc(Cl)cc1Cl (configuration not stated) be said to have composite z-score at or above 0.4?
Response: -1

Request: Can CN(C)CCCCCCNC(=O)[C@@H]1C[C@@H]2C(=O)N[C@@H](CCCC[N+](C)(C)C)C(=O)N2[C@@H]1c1ccc(O)cc1 be said to have composite z-score at or above 0.4?
Response: 1

====

Entries and their z-score values follow.
# protocol-summary: plasmodial surface anion channel blockers, osmotic lysis – cell-based, P. falciparum Indochina, OD700, 18 h, primary screen (AID 1157)
# measurement-setup: P. falciparum Indochina infected erythrocytes, osmotic lysis OD700, 18 h; higher = more signal, called active from +8 up or from −8 down
Answer with a bare number; do not write a unit.

Illustrative cases are given below, each with its answer.
compound | z-score
COc1ccc(NC(=O)O[C@H]2[C@H](OC(=O)c3cc4ccccc4[nH]3)[C@@H](OC(=O)c3cc4ccccc4[nH]3)[C@@H](OC)O[C@@H]2CO)cc1 | -0.955
C#CCN(C/C=C/c1ccccc1)[C@H](CO)c1ccccc1 | 0.305
COCC(=C=CC[C@@H](O)c1ccc(OCCO)cc1)C[C@@H](O)c1ccccn1 | 0.429
COC(=O)C(CC#Cc1ccc2c(c1)[C@]1(C(=O)N2)[C@H](c2ccc(O)cc2)N2[C@H](c3ccccc3)[C@H](c3ccccc3)OC(=O)[C@H]2[C@@H]1C(=O)N1CCN(c2ncccn2)CC1)C(=O)OC | 0.515
CCCCN1CC=CC23O[C@@H]4C=CCOC(=O)[C@@H]4[C@H]2C(=O)N(CCCCCCO)[C@@H]3C1=O (some centres not stated) | 0.405

Request: // Input: CCCCC(=C=CC[C@@H](O)c1cccc(OCCO)c1)C[C@@H](O)c1ccccn1 . Output its z-score only.
Response: 0.504

Request: // Input: CO[C@H]1O[C@H](CO)[C@@H](OC(=O)Nc2ccccc2-c2ccccc2)[C@H](OC(=O)Nc2ccccc2-c2ccccc2)[C@@H]1OC(=O)Nc1ccccc1-c1ccccc1 . Output its z-score only.
Response: 0.938
